- TARGET OF ASSAY: F508delCFTR cell surface expression in CFBE41o-F508delCFTR-HRP cells (Homo sapiens, UniProt P13569, DEL508-508)
- Construct: fused on or other part: Horseradish peroxidase (HRP) reporter inserted in the fourth exofacial (extracellular) loop of CFTR; expression is doxycycline-inducible
- Sequence (P13569 with tags, fused parts or gaps DEL508-508 limits assumed): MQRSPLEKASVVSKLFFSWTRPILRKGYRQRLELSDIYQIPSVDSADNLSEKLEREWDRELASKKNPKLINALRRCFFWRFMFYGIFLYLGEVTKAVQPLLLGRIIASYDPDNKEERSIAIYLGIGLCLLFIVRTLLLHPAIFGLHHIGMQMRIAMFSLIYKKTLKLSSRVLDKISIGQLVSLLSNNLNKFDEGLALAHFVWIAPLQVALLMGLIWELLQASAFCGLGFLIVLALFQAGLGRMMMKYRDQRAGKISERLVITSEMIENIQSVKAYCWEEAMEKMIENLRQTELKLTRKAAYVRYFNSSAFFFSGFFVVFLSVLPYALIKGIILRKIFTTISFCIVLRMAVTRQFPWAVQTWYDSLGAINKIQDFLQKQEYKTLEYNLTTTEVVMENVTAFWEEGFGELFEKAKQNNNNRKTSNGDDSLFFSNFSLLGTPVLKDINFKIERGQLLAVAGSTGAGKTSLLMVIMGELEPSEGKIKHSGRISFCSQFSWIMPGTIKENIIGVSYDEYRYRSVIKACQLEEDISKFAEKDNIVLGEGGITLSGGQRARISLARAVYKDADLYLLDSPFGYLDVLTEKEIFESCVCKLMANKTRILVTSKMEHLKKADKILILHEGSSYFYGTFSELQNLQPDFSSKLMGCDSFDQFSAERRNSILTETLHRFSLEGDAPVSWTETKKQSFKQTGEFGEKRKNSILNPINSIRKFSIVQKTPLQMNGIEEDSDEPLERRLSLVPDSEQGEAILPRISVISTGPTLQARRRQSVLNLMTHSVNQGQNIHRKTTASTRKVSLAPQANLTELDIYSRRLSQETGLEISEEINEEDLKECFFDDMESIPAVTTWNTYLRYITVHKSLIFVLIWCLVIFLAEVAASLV
- Sequence (P13569 919-1480 limits assumed, stated change not applied): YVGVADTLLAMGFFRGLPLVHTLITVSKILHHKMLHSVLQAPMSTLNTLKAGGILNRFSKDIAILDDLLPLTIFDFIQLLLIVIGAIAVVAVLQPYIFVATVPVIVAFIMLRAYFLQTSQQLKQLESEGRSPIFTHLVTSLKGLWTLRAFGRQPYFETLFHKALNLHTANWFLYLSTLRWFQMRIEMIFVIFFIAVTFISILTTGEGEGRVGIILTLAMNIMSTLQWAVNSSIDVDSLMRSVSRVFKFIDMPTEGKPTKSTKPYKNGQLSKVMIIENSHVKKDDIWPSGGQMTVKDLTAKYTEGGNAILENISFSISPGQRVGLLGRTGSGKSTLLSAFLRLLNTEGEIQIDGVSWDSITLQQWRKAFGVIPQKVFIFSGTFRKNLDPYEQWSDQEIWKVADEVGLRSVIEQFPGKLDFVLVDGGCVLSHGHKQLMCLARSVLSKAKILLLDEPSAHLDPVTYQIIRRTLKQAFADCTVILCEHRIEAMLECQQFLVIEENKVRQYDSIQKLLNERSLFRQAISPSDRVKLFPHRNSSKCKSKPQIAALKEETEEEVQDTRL
- PROTOCOL TEXT: Cell Surface Expression-Horse Radish Peroxidase (CSE-HRP) Assay
- Format: cell-based
- CONDITION NOTES: maximum at any tested concentration, normalized to on-plate positive control (3 μM)
READOUT: Maximum % activity (%)

MOLECULE: C[C@]1(C(=O)Nc2cccc(-c3ccc(C(=O)O)cc3F)n2)COc2cc3c(cc21)OC(F)(F)O3
ENDPOINT UNIT: %
VALUE MEASURED: 189

MOLECULE: Cc1ccc(NC(=O)[C@@]2(C)CCc3c2ccc2c3OCO2)cc1-c1cccc(C(=O)O)c1 (single isomer, unassigned)
ENDPOINT UNIT: %
VALUE MEASURED: 22

MOLECULE: C[C@]1(C(=O)N[C@@H]2C[C@H]([C@H]3CC[C@H](C(=O)N4CCOCC4)CC3)Oc3cc(OC(F)(F)F)ccc32)COc2cc3c(cc21)OC(F)(F)O3
ENDPOINT UNIT: %
VALUE MEASURED: 172

MOLECULE: CCOC(=O)C1(CN)CCC([C@H]2C[C@@H](NC(=O)[C@@]3(C)COc4cc5c(cc43)OC(F)(F)O5)c3ccc(OC(F)(F)F)cc3O2)CC1 (stereo partly drawn)
ENDPOINT UNIT: %
VALUE MEASURED: 199

MOLECULE: C[C@]1(C(=O)N[C@H]2C[C@@H](C3(C(=O)O)CC3)Oc3cc(OC(F)(F)F)ccc32)COc2cc3c(cc21)OC(F)(F)O3
ENDPOINT UNIT: %
VALUE MEASURED: 71

MOLECULE: CC1(C)OC[C@H](CN2CCC([C@@H]3C[C@H](NC(=O)[C@@]4(C)COc5cc6c(cc54)OC(F)(F)O6)c4ccc(OC(F)(F)F)cc4O3)CC2)O1
ENDPOINT UNIT: %
VALUE MEASURED: 18

MOLECULE: CC1(C(=O)Nc2cccc(N3CC[C@@H](C(=O)O)C3)n2)COc2cc3c(cc21)OC(F)(F)O3 (stereo partly drawn)
ENDPOINT UNIT: %
VALUE MEASURED: 126

MOLECULE: COc1ccc2c(c1)O[C@@H](c1ccc(C(=O)NCC(C)(C)O)cn1)C[C@H]2NC(=O)[C@@]1(C)COc2cc3c(cc21)OC(F)(F)O3
ENDPOINT UNIT: %
VALUE MEASURED: 114

MOLECULE: CC1(C)OC[C@@H](Cn2c3c(c4cc(NC(=O)[C@@]5(C)COc6cc7c(cc65)OC(F)(F)O7)c(F)cc42)C(C)(C)OCC3(C)C)O1
ENDPOINT UNIT: %
VALUE MEASURED: 69

MOLECULE: CC(C)(CO)[C@H]1Cc2cc(NC(=O)[C@@]3(C)COc4cc5c(cc43)OC(F)(F)O5)c(F)cc2N1C[C@@H](O)CO (single isomer, unassigned)
ENDPOINT UNIT: %
VALUE MEASURED: 49

MOLECULE: COc1ccc2c(c1)OC(c1ccc(=O)n(C[C@@H](O)CO)n1)C[C@H]2NC(=O)[C@@]1(C)COc2cc3c(cc21)OC(F)(F)O3 (stereo partly drawn)
ENDPOINT UNIT: %
VALUE MEASURED: 105

MOLECULE: O=C(O)c1ccc([C@@H]2C[C@H](NC(=O)C3(c4ccc5c(c4)OC(F)(F)O5)CC3)c3ccccc3N2)cc1 (single isomer, unassigned)
ENDPOINT UNIT: %
VALUE MEASURED: 27
